Biological target: Tyrosine-protein kinase ITK/TSK (Homo sapiens, UniProt Q08881)
Sequence (Q08881 whole entry): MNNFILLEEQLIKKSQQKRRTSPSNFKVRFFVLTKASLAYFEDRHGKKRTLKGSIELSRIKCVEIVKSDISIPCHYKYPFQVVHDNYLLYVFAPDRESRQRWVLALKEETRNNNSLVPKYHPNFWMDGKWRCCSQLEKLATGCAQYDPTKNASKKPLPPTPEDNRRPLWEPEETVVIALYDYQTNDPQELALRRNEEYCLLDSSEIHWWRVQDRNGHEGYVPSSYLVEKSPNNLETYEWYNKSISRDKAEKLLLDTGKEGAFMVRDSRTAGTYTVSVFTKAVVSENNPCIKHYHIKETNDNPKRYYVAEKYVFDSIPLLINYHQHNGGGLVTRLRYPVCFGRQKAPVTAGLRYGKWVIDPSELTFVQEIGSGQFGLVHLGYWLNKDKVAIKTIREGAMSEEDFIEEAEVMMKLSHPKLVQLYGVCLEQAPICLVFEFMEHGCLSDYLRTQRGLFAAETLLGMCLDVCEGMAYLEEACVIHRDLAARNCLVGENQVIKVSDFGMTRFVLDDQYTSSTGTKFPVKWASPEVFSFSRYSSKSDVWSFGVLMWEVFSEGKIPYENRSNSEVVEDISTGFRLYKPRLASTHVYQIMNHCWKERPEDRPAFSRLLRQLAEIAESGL
Experiment: Inhibition of ITK by DELFIA method
Property label: IC50 (nM)

# annotated cases, reported IC50 shown
Query smiles | IC50 (nM)
CN(C(=O)c1ccccc1)c1ccc2c(c1)[nH]/c(=N\C(=O)c1cncs1)n2CCC(N)=O | 130
CN(C(=O)c1ccccc1)c1ccc2c(c1)[nH]/c(=N\C(=O)c1cnco1)n2CCC(N)=O | 180

[a] CN(C(=O)c1ccccc1)c1ccc2c(c1)nc(NC(=O)c1ccc(N3CCOCC3)s1)n2CCC(N)=O
[b] CN(C(=O)c1ccccc1)c1ccc2c(c1)nc(NC(=O)c1ccc(N3CCNCC3)s1)n2CCC(N)=O
Task: For the pair a and b , which member has the lower IC50 number? Record your answer as the label of the chosen record.
Output: a
(a: 74 nM, b: 150 nM)
